- Test system: BaF3 hCSF1R cell line
- PROTOCOL DETAILS: Proliferation of engineered BaF3 hCSF1R cell line (CTG assay)
- Assay type: cell-based
- TEST PARAMETERS: engineered BaF3 hCSF1R; 3 days; CTG; read-out: IC50
ATTRIBUTE MEASURED: IC50 (nM)
Provide only the numeric value, understood in nM.

Exam item: IC50 for `COc1ccc(COc2ccc(Cc3cnc(N)nc3N)cc2OC)cc1` ?
Marked response: 279

---

ATTRIBUTE MEASURED: IC50 (nM)
I only need the number, in nM, no unit after it.

Exam item: Item: `Cc1cc(Oc2cc(NC(=O)C3CC3)ncn2)ccc1NC(=O)Nc1ccc(Cl)c(C(F)(F)F)c1` Test system: Aurora-B (h) (Homo sapiens) Read-out: IC50 Value: ?
Marked response: 525
